test: Pharmacokinetics of ABS212 in Sprague-Dawley rats; assay type: in vivo, rat; settings: Sprague-Dawley, rat, plasma; IV bolus 2.5 mg/kg; read-out: half-life (T1/2) (converted)
Where a SMILES comes first, the peptide text is derived from it. [ ]: non-standard residue; d: D form. The star is where a group is joined. X2 = C[C@@H](CCC[N+](C)(C)C)C(=O)*; Tle = CC(C)(C)[C@H](N)C(=O)O
quantity_kind: half-life (min)
Report the value in min with no unit label.

Looking up CC(C)C[C@H](NC(=O)[C@@H](NC(=O)[C@H](Cc1ccc(O)cc1)NC(=O)[C@@H]1CCCN1C(=O)[C@H](CCCNC(=N)N)NC(=O)[C@@H](C)CCC[N+](C)(C)C)C(C)(C)C)C(=O)O [ABS-212.2HCL] (X2-RPY[Tle]L-OH) , I see its half-life listed as 16.8
